Biological target: human FSH receptor (Homo sapiens)
Construct: expressed in transfected cells; host or cells: Chinese Hamster Ovary (CHO) cells, stably transfected, cotransfected with a CRE/promoter-firefly luciferase reporter
Sequence (P23945 18-695): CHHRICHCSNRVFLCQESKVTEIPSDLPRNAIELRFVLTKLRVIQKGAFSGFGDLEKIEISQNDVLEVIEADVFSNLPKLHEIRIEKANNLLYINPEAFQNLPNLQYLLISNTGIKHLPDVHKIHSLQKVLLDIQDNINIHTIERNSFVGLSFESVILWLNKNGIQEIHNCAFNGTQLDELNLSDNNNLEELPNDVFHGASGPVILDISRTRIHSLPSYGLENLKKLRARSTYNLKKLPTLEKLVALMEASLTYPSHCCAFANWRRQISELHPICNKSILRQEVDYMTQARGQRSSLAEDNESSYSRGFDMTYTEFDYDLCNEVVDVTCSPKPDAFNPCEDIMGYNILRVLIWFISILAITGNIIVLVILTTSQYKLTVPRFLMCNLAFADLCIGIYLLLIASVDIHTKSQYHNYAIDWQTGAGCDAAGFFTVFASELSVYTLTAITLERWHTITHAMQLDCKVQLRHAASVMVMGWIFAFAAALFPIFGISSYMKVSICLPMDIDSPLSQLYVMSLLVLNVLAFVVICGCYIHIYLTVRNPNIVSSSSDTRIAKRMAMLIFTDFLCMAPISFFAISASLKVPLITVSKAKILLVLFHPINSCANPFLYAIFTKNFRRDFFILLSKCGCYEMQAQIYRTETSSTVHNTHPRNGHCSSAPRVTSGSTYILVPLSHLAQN
Test: Agonistic activity at the human FSH receptor expressed in CHO cells, CRE-luciferase reporter (hFSHRago CHO luc)
Format: cell-based
Conditions: CHO cells stably transfected with human FSH receptor and CRE/luciferase reporter; 4 hours of incubation
Kindly apply the following: satisfied if EC50 is less than 3 nM, not satisfied in every other case.

compound: COc1cc2ccn3c(C(=O)N(C)C(C)(C)C)nc(-c4cccs4)c3c2cc1OC(C)C [Example 15j]
target_entity: human FSH receptor (Homo sapiens)
cat: not satisfied

Dear colleague, could you confirm whether EC50 of CCn1nnc(-c2cc3c(cc2OC)CCn2c(C(=O)N(C)C(C)(C)C)nc(-c4cccs4)c2-3)n1 [Example 51c] falls below 3 nM? Thanks. not satisfied

Same thing, different compound: COC1=CC2CCn3c(C(=O)N(C)C(C)(C)C)nc(-c4cccs4)c3C2C=C1c1cccnc1 (centres unmarked) [Example 2a] satisfied

And what about the compound CCCCN1CCN(C(=O)c2nc(-c3cccs3)c3n2CCc2cc(OC)c(OC(C)C)cc2-3)CCC1=O [Example 27b] ? satisfied

Cited source: patent US8071587B2
